Tested on: M14 melanoma
PROCEDURE TEXT: NCI tumour cell line growth inhibition, 48 h
Where a SMILES comes first, the peptide text is derived from it. [ ]: non-standard residue; d: D form. pGlu = O=C1CC[CH](C(=O)O)N1; Thz = O=C(O)[CH]1CSCN1

| COMPOUND | TARGET ENTITY | TGI |
| --- | --- | --- |
| CC(C)(C)C1=C(Br)C(F)(C(C)(C)C)OP1(=O)c1ccccc1 (stereo not given) | M14 melanoma | 28.5 µM |
| Cc1ccc(S(=O)(=O)n2cc(C=O)c(-c3cn(S(=O)(=O)c4ccc(C)cc4)cc3-c3cn(S(=O)(=O)c4ccc(C)cc4)cc3C=O)c2)cc1 | M14 melanoma | > 100 µM |
| O=C1c2ccccc2C(=O)N1CCc1ncc(-c2ccccc2)[nH]1 | M14 melanoma | > 100 µM |
| NC(=S)N/N=C/c1ccc(OC(=O)COc2cc(Cl)c(Cl)cc2Cl)cn1 | M14 melanoma | 5.75 µM |
| COc1cc2nc(N3CCCN(C)CC3)nc(NC3CCN(Cc4ccccc4)CC3)c2cc1OC | M14 melanoma | 3.22 µM |
| O=C(CC1(O)C(=O)Nc2c(Cl)cc(Cl)cc21)c1ccccc1 (stereo not given) | M14 melanoma | > 100 µM |
| Nc1ncnc2c1ncn2[C@H]1C=C[C@@H](NO)C1 | M14 melanoma | > 100 µM |
| O=C1CCC(C(=O)N2CSCC2C(=O)O)N1 (stereo not given) ([pGlu]-[Thz]-OH; configuration not given here) | M14 melanoma | > 100 µM |
| COc1ccc(C2CC(c3c(O)ccc4ccccc34)=NN2)cc1OC (stereo not given) | M14 melanoma | 17.3 µM |
| CC(C)(C)C1=CC(=N/N=c2\scc(-c3ccccc3)n2-c2ccccc2)C=C(C(C)(C)C)C1=O | M14 melanoma | > 100 µM |
| NC(=S)N1N=C2CCCCCC[C@@H]2[C@H]1c1ccccc1 | M14 melanoma | > 100 µM |
| CC1OC(OC2C(O)COC(OC3C(C)OC(OC4C(OC(=O)[C@]56CCC(C)(C)C[C@@H]5C5=CCC7[C@@]8(C)C[C@H](O)[C@H](OC9OC(CO)C(O)C(O)C9O)[C@@](C)(CO)[C@@H]8CC[C@@]7(C)[C@]5(C)CC6)OCC(O)C4O)C(O)C3O)C2O)C(O)C(O)C1O (stereo not given in full) | M14 melanoma | 41.9 µM |
| Cc1cn(C2CC(n3cc(Cn4ccc(=O)[nH]c4=O)nn3)C(CO)O2)c(=O)[nH]c1=O (stereo not given) | M14 melanoma | > 100 µM |
| C#C[C@]1(O)CC[C@H]2[C@@H]3CCC4=C/C(=N\OCCN5CCCCC5)CC[C@]4(C)[C@H]3CC[C@@]21C | M14 melanoma | 10.2 µM |
| ClCc1nc2ccccc2[nH]1 | M14 melanoma | > 100 µM |
| COc1ccc(/C=C2\N=C(N3CCCC(CO)C3)NC2=O)cc1 (stereo not given) | M14 melanoma | > 100 µM |
| COc1ccc(/C=C/c2cc(OC)c(OC(C)=O)c(OC)c2)cc1 | M14 melanoma | > 100 µM |
| Cc1cccc(-c2nnc3s/c(=C\c4ccc(N(C)C)cc4)c(=O)n23)c1 | M14 melanoma | > 100 µM |
| CN(O)C(=O)CCC(NC(=O)CCC(N)C(=O)O)C(=O)NCC(=O)O (stereo not given) | M14 melanoma | > 100 µM |
| COc1ccc(CC(=O)NCCc2ccc(OC)c(OC)c2OC)cc1 | M14 melanoma | > 100 µM |
| COc1ccc(NC(=O)Oc2ccc3c(C)cc(=O)oc3c2)c(OC)c1 (tested in a mixture with another compound) | M14 melanoma | > 100 µM |
| O=C1c2c(c(=O)[nH]c3ccccc23)[C@H](c2ccccc2)[C@@H]2CCCN12 | M14 melanoma | 14.5 µM |
| Cc1c(NC(=S)Nc2ccc([N+](=O)[O-])cc2)c(=O)n(-c2ccccc2)n1C | M14 melanoma | > 100 µM |
| Cc1ccc(CNc2ccc3nc(CCC4CCCCC4)[nH]c3c2)cc1 | M14 melanoma | 3.9 µM |
| COC(=O)/C=C1/SC(=Nc2cccc(Cl)c2)N(CCc2c[nH]c3ccc(O)cc23)C1=O | M14 melanoma | 3.36 µM |
| COc1ccc(CCN2CCN(CCCc3ccccc3)CC2)cc1 | M14 melanoma | > 100 µM |
| Cc1nc(OCc2ccccc2)c2ncn(CCO)c2n1 | M14 melanoma | > 100 µM |
| FC1(F)ON2CCc3ccccc3C2[C@H]1c1ccccc1 (stereo not given in full) | M14 melanoma | > 100 µM |
| O=c1[nH]c(NCc2cccnc2)nc2nc[nH]c12 | M14 melanoma | > 100 µM |
| O=C(Cc1ccc2ccccc2c1)NCc1ccc(C(=O)NCCc2ccccc2)cc1 | M14 melanoma | > 100 µM |
| Cc1c(Cn2c(C)nc3c(C(=O)O)cc(N4CCOCC4)cc32)cccc1C(F)(F)F | M14 melanoma | > 100 µM |
| COc1ccc(S(=O)(=O)Nc2ccc(-c3csc(N4C(=O)/C(=C/c5ccccc5[N+](=O)[O-])N=C4c4ccccc4)n3)cc2)cc1Cl | M14 melanoma | > 100 µM |
| CCN1CCN(CCNc2nccc(-c3c(-c4ccc(F)c(O)c4)nc4occn34)n2)S1(=O)=O | M14 melanoma | > 100 µM |
| O=C(O)c1nc2cc(Cl)ccc2[nH]c1=O | M14 melanoma | > 100 µM |
| COC(=O)c1ccc(NCc2cc(OC)ccc2OC)cc1 | M14 melanoma | > 100 µM |
| O=C1c2ccccc2N(O)C1(c1ccccc1)C1CCCC=C1N1CCOCC1 (stereo not given) | M14 melanoma | > 100 µM |
| COc1ccc(N2C(=O)C3CC(c4ccc(Br)cc4)c4c([nH]c5ccccc45)C3C2=O)cc1 (stereo not given) | M14 melanoma | > 100 µM |
| CCOC(=O)C(=Cc1ccc(C#N)cc1)C(=O)OCC | M14 melanoma | 4.26 µM |
| O=C1CCCCCCC2=C1C(Sc1ccccc1)CC2 (stereo not given) | M14 melanoma | > 100 µM |
| CC(C)(C)OC(=O)NCC(CNC(=O)OC(C)(C)C)C(N)=O | M14 melanoma | > 100 µM |

The reported numbers originate from PubChem BioAssay (NCI).
